Origin of values: paper PMC4579345

# method: Ritonavir pharmacokinetic parameters during pregnancy and postpartum
# Format: in vivo, human
# measurementSetup: female, human, plasma, oral, AUC0-12, twice daily dosing; postpartum; median (interquartile range)
attributeMeasured: AUC(0-t) (ng·h/mL)
Answer in ng·h/mL, number only, no unit symbol.

Ask: Looking for the measured AUC(0-t) of CC(C)c1nc(CN(C)C(=O)N[C@H](C(=O)N[C@@H](Cc2ccccc2)C[C@H](O)[C@H](Cc2ccccc2)NC(=O)OCc2cncs2)C(C)C)cs1 , can you help?
Result: 5600

###

# method: Ritonavir pharmacokinetic parameters during pregnancy and postpartum
# Format: in vivo, human
# measurementSetup: female, human, plasma, oral, Cmax, twice daily dosing; third trimester; median (interquartile range)
attributeMeasured: Cmax (ng/mL)
Answer with a number only, understood to be in ng/mL.

Ask: Give its Cmax value. Item: CC(C)c1nc(CN(C)C(=O)N[C@H](C(=O)N[C@@H](Cc2ccccc2)C[C@H](O)[C@H](Cc2ccccc2)NC(=O)OCc2cncs2)C(C)C)cs1 [ritonavir]
Result: 460
